Biological target: GDP-bound KRAS protein (aa 1-169), containing both G12D and C118A amino acid substitutions (Homo sapiens, UniProt P01116, C118A/G12D)
Sequence (P01116 1-169 isoform P01116-2 G12D/C118A): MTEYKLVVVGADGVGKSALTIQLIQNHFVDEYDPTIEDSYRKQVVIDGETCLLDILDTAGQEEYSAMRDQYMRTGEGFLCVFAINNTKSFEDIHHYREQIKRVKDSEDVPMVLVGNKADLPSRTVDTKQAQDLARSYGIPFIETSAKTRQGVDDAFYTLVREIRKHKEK
Experiment: KRAS G12D Coupled Nucleotide Exchange Assay
Type: biochemical
Experimental Readout: IC50

| Compound | IC50 |
| --- | --- |
| C/C=C\c1c(C)cc2[nH]ncc2c1-c1c(F)cc2c(N3CCC[C@]4(CCO4)C3)nc(OC[C@@]34CCCN3C[C@H](F)C4)nc2c1F (single isomer, unassigned) | 5 nM |
| C/C=C\c1c(Cl)cc2[nH]ncc2c1-c1ccc2c(N3CCOC[C@@](C)(O)C3)nc(OC[C@@]34CCCN3C[C@H](F)C4)nc2c1F | 3 nM |
| O=C1NC[C@]2(CCCN(c3nc(OC[C@@]45CCCN4C[C@H](F)C5)nc4c(F)c(-c5cc(O)cc(Cl)c5C5CC5)ccc34)C2)O1 | 2 nM |
| CCc1c(F)ccc2cc(O)cc(-c3c(F)cc4c(N5CCCC6(CNC(=O)O6)C5)nc(OC[C@@]56CCCN5C[C@H](F)C6)nc4c3F)c12 (single isomer, unassigned) [Example 59] | 8 nM |
| CCc1c(F)ccc2cc(N)cc(-c3c(F)cc4c(N5CCC[C@@](C)(O)C5)nc(OC[C@@]56CCCN5C[C@H](F)C6)nc4c3F)c12 (single isomer, unassigned) [Example 61] | 272 nM |
| CCc1c(F)ccc2cc(O)cc(-c3c(F)cc4c(N5[C@H]6CCC(O)[C@@H]5CC6)nc(OC[C@@]56CCCN5C[C@H](F)C6)nc4c3F)c12 (mixture of isomers) | 11 nM |

I need IC50 for every entry listed below, if you could help.
1. CCc1c(F)ccc2cc(N)cc(-c3ccc4c(N5CCC[C@@](C)(O)C5)nc(OC[C@@]56CCCN5C[C@H](F)C6)nc4c3F)c12
2. CCc1c(F)ccc2cc(N)cc(-c3c(F)cc4c(N5CCCC(O)(C(F)F)C5)nc(OC[C@@]56CCCN5C[C@H](F)C6)nc4c3F)c12 (stereo partly drawn)
3. CCc1c(F)ccc2cc(O)cc(-c3ccc4c(N5CC6CC(O)C(C6)C5)nc(OC[C@@]56CCCN5C[C@H](F)C6)nc4c3F)c12 (single isomer, unassigned)
4. CCc1c(F)ccc2cc(O)cc(-c3c(F)cc4c(N5CCC(O)C5)nc(OC[C@@]56CCCN5C[C@H](F)C6)nc4c3F)c12 (stereo partly drawn)
5. C#Cc1c(F)ccc2cc(N)cc(-c3ccc4c(N5CCC[C@@](C)(O)C5)nc(OC[C@@]56CCCN5C[C@H](F)C6)nc4c3F)c12
6. CCc1c(F)ccc2cc(O)cc(-c3ccc4c(N5CCC[C@]6(CCO6)C5)nc(OC[C@@]56CCCN5C[C@H](F)C6)nc4c3F)c12 (single isomer, unassigned)
7. CCc1c(F)ccc2cc(O)cc(-c3c(F)cc4c(N5CCC[C@]6(CNC(=O)O6)C5)nc(OC[C@@H]5C[C@@H](F)CN5C)nc4c3F)c12 (single isomer, unassigned)
8. C[C@@H]1C[C@@H]1c1c(Cl)cc2[nH]ncc2c1-c1ccc2c(N3CCC[C@@](C)(O)C3)nc(OC[C@@]34CCCN3C[C@H](F)C4)nc2c1F (atropisomer, axis not shown; (aS))

["10 nM", "23 nM", "4 nM", "37 nM", "6 nM", "3 nM", "2 nM", "8 nM"]

I need IC50 for every entry listed below, if you could help.
1. CCc1cccc2cc(O)cc(-c3c(F)cc4c(N5CCC[C@]6(CCO6)C5)nc(OC[C@@]56CCCN5C[C@H](F)C6)nc4c3F)c12
2. C[C@@H]1C[C@@H]1c1c(Cl)cc2[nH]ncc2c1-c1c(F)cc2c(N3CCOC[C@@](C)(O)C3)nc(OC[C@@]34CCCN3C[C@H](F)C4)nc2c1F (single isomer, unassigned)
3. O=C1NCC2(CCCN(c3nc(OC[C@@]45CCCN4C[C@H](F)C5)nc4c(F)c(-c5cc(O)cc(Cl)c5C5CC5)ccc34)C2)O1 (stereo partly drawn)
4. CCc1c(F)ccc2cc(O)cc(-c3ccc4c(N5CCCC(O)(C(F)F)C5)nc(OC[C@@]56CCCN5C[C@H](F)C6)nc4c3F)c12 (single isomer, unassigned) [Example 24]
5. CCc1c(F)ccc2cc(O)cc(-c3c(F)cc4c(N5CCCOCC5)nc(OC[C@@]56CCCN5C[C@H](F)C6)nc4c3F)c12
6. CCc1c(F)ccc2cc(O)cc(-c3c(F)cc4c(N5CCC[C@]6(CCS(=O)(=O)C6)C5)nc(OC[C@@]56CCCN5C[C@H](F)C6)nc4c3F)c12 (single isomer, unassigned)
7. C/C=C\c1c(C)cc2[nH]ncc2c1-c1c(F)cc2c(N3CCC[C@](O)(CF)C3)nc(OC[C@@]34CCCN3C[C@H](F)C4)nc2c1F (single isomer, unassigned)

1: 4 nM; 2: 3 nM; 3: 5 nM; 4: 80 nM; 5: 3 nM; 6: 4 nM; 7: 3 nM
